FYI, the data here is from patent US20160216259A1.

- Test system: avidin (Gallus gallus, UniProt P02701)
- Construct: purchased Sigma-Aldrich
- Sequence (P02701 25-152): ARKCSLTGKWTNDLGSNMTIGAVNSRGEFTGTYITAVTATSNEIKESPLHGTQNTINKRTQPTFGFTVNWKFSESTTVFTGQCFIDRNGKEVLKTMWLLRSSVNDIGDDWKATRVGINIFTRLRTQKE
- Protocol: Continuous injection ITC, single independent binding of lipoic acid to avidin
- Measurement conditions: 1 mM lipoic acid, continuous 0.1 mL/h into 25 μM avidin, 25° C., pH 6.6; read-out: Kd1
Quantity: Kd (nM)
Number in nM, nothing else.

Input line: Entry O=C(O)CCCCC1CCSS1 (stereo not shown) : reported Kd = ?
Output line: 520
